Assay: Toxicity liver stage against HepG2, at 10uM
Format: cell-based
Design: test concentration 10 uM, cell line HepG2-A16-CD81EGFP
Details: human, HepG2-A16-CD81EGFP cells; read-out: INHIBITION
This listing pairs molecules with measured cytotoxicity at 10 µM.
property: cytotoxicity at 10 µM (%)

INSERT INTO assay_data (molecule, units, measured_result) VALUES
  ('COc1ccc(CN2CCC(CO)(Cc3ccc(Cl)cc3)CC2)c(O)c1', '%', -134),
  ('O=C(c1ccccn1)N1CCCN(Cc2nnc(C3CC3)o2)CC1', '%', 5.25),
  ('COC(=O)c1cc(C(=O)N2CCCCC2C)n(-c2ccccc2)n1 (stereo unspecified)', '%', -13.7),
  ('CSCCCN1CCC(c2nnc(Cn3ccnc3)n2C2CC2)CC1', '%', 0.872),
  ('CS(=O)(=O)Cc1ccc(Cl)c(NCc2noc(C3CC3)n2)c1', '%', 6.95),
  ('Cc1cccc2c(CCNC(=O)NCCC[S+](C)[O-])c[nH]c12 (stereo unspecified)', '%', -25.4),
  ('COc1c(CNCc2ccc(C(=O)N(C)C)cc2)c(C)nn1C', '%', 1.64),
  ('COc1ncccc1C(=O)N1CCC(CNC(C)=O)CC1', '%', 3.17),
  ('CN1CC(C(=O)NCCOc2ccc3c(c2)OCO3)CC1=O (stereo unspecified)', '%', -4.35),
  ('COCCNC(=O)c1cn(C(C)(C)C)c2ncccc12', '%', 2.74),
  ('O=C(C1CC1)N1CC[C@@H]2[C@H](CC1)N(Cc1cccnc1)CCS2(=O)=O', '%', -1.84),
  ('CCc1nc(CN(C)C2CCN(CCc3ccccn3)C2)no1 (stereo unspecified)', '%', -0.168),
  ('Cc1cccc(C(=O)N2CCSCC2)c1NC(=O)c1cccnc1', '%', -2.83),
  ('Cc1nccn1CCN(C)C(=O)C1CCN(C(=O)C2CCC2)CC1', '%', -1.45),
  ('CCS(=O)(=O)N1CCOC2(CCCN(c3ccc(C)nn3)C2)C1 (stereo unspecified)', '%', 0.253),
  ('COC1CN(C(=O)NCC(N)=O)CCC(=O)N(C)c2ccccc21 (stereo unspecified)', '%', -3.84),
  ('CC(Cn1cccn1)NC(=O)c1cc(C2CC2)nc2c1cnn2C (stereo unspecified)', '%', 0.351),
  ('O=C(c1cscn1)N1CC[C@@H]2[C@@H]1CCN2c1ccccn1', '%', 5.95),
  ('O=C(Nc1ccccc1)N1CCn2c(nnc2C2CCNCC2)C1', '%', -3.84),
  ('CC(=O)N[C@@H]1CN(C(=O)c2cccc(C(F)(F)F)c2)C[C@H]1O', '%', 1.9),
  ('c1ccc(OC2COC3(CCN(CC4CC4)CC3)C2)nc1 (stereo unspecified)', '%', -75.2),
  ('Cc1cccc(-n2nc(CC(C)C)nc2CCn2ccc(=O)[nH]c2=O)c1', '%', -3.7),
  ('CCOc1ncccc1CNS(=O)(=O)c1ccc2c(c1)CCO2', '%', 7.95),
  ('CC1(C)[C@@H]2CC=C(CN3CCCn4nc(C(=O)O)cc4C3)[C@H]1C2', '%', -40.8),
  ('Cc1cnn(CC2CCCCN2Cc2nnc(-c3ccco3)o2)c1 (stereo unspecified)', '%', -10.4),
  ('Cc1ccc(S(=O)(=O)NC(=O)COc2ccc(CC#N)cc2)s1', '%', 2.52),
  ('CNC(=O)[C@H]1C[C@H]2OCC[C@H]2N(Cc2cccc3ccccc23)C1', '%', 7.67),
  ('CS(=O)(=O)N[C@H]1CN(CCOCc2ccccc2)C[C@@H]1C1CC1', '%', -1.1),
  ('COc1ccccc1C(O)CNCc1c(C(C)C)nn(C)c1N(C)C (stereo unspecified)', '%', -7.31),
  ('CNc1nc(C2CCCN2C(C)=O)nc2c1CCN(CC1CC1)C2 (stereo unspecified)', '%', -0.361),
  ('COC[C@]12COC[C@H]1CN(C(=O)c1ccc(F)cc1C)C2', '%', -135),
  ('CCC1CN(CC(=O)NCCC#N)CCO1 (stereo unspecified)', '%', 2.28),
  ('c1cncc(CN2CC(Cc3nccc4cc[nH]c34)C2)c1', '%', -2.26),
  ('CN(C)S(=O)(=O)N1CCC2(COCc3cnc(-c4ccccc4)nc32)C1 (stereo unspecified)', '%', -13.6),
  ('COc1cc(C)cc(C(C(=O)O)N(C)CCN2CCCC2)c1OC (stereo unspecified)', '%', 0.712),
  ('CC(C)(C)OC(=O)N[C@H]1CCN(C(=O)c2cc(Cl)c[nH]2)C1', '%', -2.84),
  ('c1nc(N2CCOCC2)ncc1-c1cncn1CCCN1CCCCC1', '%', -7.08),
  ('CC(C(=O)NC1CC1)N1CCN(Cc2ccn(C)c(=O)c2)CC1 (stereo unspecified)', '%', -5.57),
  ('O=C(c1ccncc1F)N1Cc2nc(CN3CCCCC3)oc2C1', '%', -105),
  ('Cc1ccc(OCCC(=O)N2CCOCC2c2ncon2)cc1C (stereo unspecified)', '%', -11.9),
  ('CCOc1ccc(C(F)(F)F)cc1NC(=O)NCc1noc(C)n1', '%', -5.1),
  ('Cc1noc(CCNC(=O)C2CSCN2C(=O)C2CCCC2)n1 (stereo unspecified)', '%', -45),
  ('O=C(N[C@@H]1CN(Cc2ccc3c(c2)OCO3)[C@@H]2CCCO[C@@H]21)C1CC1', '%', 2.06),
  ('COc1ccc(OC)c(C2CCN(CC(C)(C)N3CCOCC3)C2)c1 (stereo unspecified)', '%', -0.359),
  ('Cc1ccc(CN2Cc3nnn(C)c3C(COCc3ccccc3)C2)s1 (stereo unspecified)', '%', 1.58),
  ('CC(C)c1noc(CN2CCCN(Cc3cccs3)CC2)n1', '%', -6.86);
